Test: NCI Yeast Anticancer Drug Screen. Data for the mlh1 strain (AID 171);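 further: 0% = growth of vehicle-treated control cultures of the same strain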
Conditions: S. cerevisiae mlh1 strain growth inhibition; at 33.0 µM; stronger effect = higher value
Method: Growth inhibition of yeast strains with defined genetic alterations is measured as a screen for potential anti-cancer activity. Selected strains with alterations in DNA damage repair or cell cycle control were exposed to compounds and growth inhibition was measured relative to vehicle treated controls. The strain used in this assay is mlh1
About 79,000 compounds went through this panel and 15% of them were active in at least one assay; those are over-represented in the sample as a whole.
endpoint label: growth inhibition (%)
The reply should contain only the number, in %.

In: Can you look up the measured growth inhibition of O=[N+]([O-])c1ccc([N+]2=NC(c3ccccc3)=NN(c3ccccc3)C2)cc1 for me?
Out: 19

In: Please look up its growth inhibition: CCCCc1cc(O)ccc1O
Out: 9

In: Report growth inhibition for CC1=C(C)Cc2c(O)ccc(O)c2C1 please.
Out: 6

In: Returns the measured growth inhibition for the input compound. Input: Cc1ccc(S(=O)(=O)Oc2cc(Cl)c(Cl)cc2Cl)cc1
Out: -6

In: Look up growth inhibition for this compound: CCCCCCCCC/C=C/C=C/C(=O)NCC(=O)NC1C(O)C(O)C(Nc2ncnc3nc[nH]c23)OC1C(O)CO (stereo unspecified)
Out: 18

In: // lookup growth inhibition for Cc1ccc(S(=O)(=O)NCCSS(=O)(=O)c2ccc(C)cc2)cc1
Out: 98

In: Would you mind telling me what growth inhibition value was observed for COc1ccc2nc3c([N+](=O)[O-])ccc(NCCN(C)C)c3c(NCCN(C)C)c2c1 ?
Out: -1

In: Recorded growth inhibition for O=C(Nc1ccccc1)C(=O)C(C(=O)c1ccccc1)C(c1ccccc1)c1ccccc1 (stereo unspecified) , please?
Out: 16

In: Could you share which growth inhibition value was measured for CCCCN(CCCC)CCSc1ccc(Cl)cc1 ?
Out: 17

In: Give its growth inhibition value. Item: O=C(NC(Nc1ccc(F)c(Cl)c1)(C(F)(F)F)C(F)(F)F)C(C(F)(F)F)C(F)(F)F
Out: 94

In: Request the reported growth inhibition associated with CCN(CC)CC(O)c1ccc2ccc3ccccc3c2c1 (stereo unspecified)
Out: 16

----------
Test: NCI Yeast Anticancer Drug Screen. Data for the wt1 strain (AID 149);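 further: 0% = growth of vehicle-treated wt1 cultures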
Settings: S. cerevisiae wt1 strain (SPY 50644) growth inhibition; at 33.0 µM
The panel holds about 79,000 compounds, 15% with a hit somewhere; the sample as a whole holds those more often. Calls of active or inactive are those of the source. Cut-off read from the data, not from the text of the source: active = growth inhibition above about 70%; inactive = the rest.
Respond only with the outcome that fits, drawn from active, inactive

In: Identify the outcome logged in this assay for the compound shown: CN(C)C[C@H]1CC[C@@H](CN(C)C)C1=O
Out: inactive

In: // outcome(item) with item = O=C(O)C1CCCCC1c1c2ccc(=O)c(O)c-2oc2c(O)c(O)ccc12 (centres undefined)
Out: inactive

In: Given Clc1ccccc1C1OC1c1ccccc1Cl (centres undefined) , state the outcome it received in this test.
Out: inactive

In: Query: recorded result category for CCCCCCCCC/C=C/C=C/C(=O)NCC(=O)NC1C(O)C(O)C(Nc2ncnc3nc[nH]c23)OC1C(O)CO (centres undefined) in this test
Out: inactive

In: Which outcome was assigned to O=C(NNc1ccnc2cc(Cl)ccc12)/C(=C\c1ccccc1Cl)NC(=O)c1ccccc1 in this test?
Out: inactive

In: Hi, do you know how Cc1cc(N=Nc2ccc(S(=O)(=O)[O-])cc2)cc(C(=O)[O-])c1[O-].NC1CCCCC1N.[Na+].[Pt+4] came out in this test?
Out: active

In: Call for entry O=C1C2C=CC1C1C(=O)OC(=O)C21 (centres undefined) :
Out: inactive

In: # lookup: test call for Cc1cc(S(=O)(=O)/N=C(/NN)NNc2cccc(C(F)(F)F)n2)c(S)cc1Cl
Out: inactive

In: Which result was noted for this compound in the test: Nc1ccc2c(c1)C(=O)c1cccc(N)c1C2=O
Out: inactive

In: Look up the recorded call for CCC(C(=O)O)C1=C(c2ccccc2)CCc2ccccc21 (centres undefined) in this test.
Out: active

In: Fill in: this test's call for CC(=O)[O][Bi]([c]1ccccc1)[c]1ccccc1 is ___
Out: active

In: Test call for this compound, please: CC(=O)Nc1ccc(/C=C(\C#N)c2ccc(C)cc2)cc1
Out: inactive

In: Record lookup: outcome of this test for CN(C)c1ccc(C(C#N)=C(C#N)C#N)cc1 ?
Out: inactive

In: Record lookup: outcome of this test for [O-][n+]1c2ccc(O)cc2nc2ccc(Cl)cc21 ?
Out: inactive

In: Field: outcome | Entry: CSC(=S)Nc1cc(C)ccn1
Out: inactive

In: Outcome logged for CCC(=O)c1cccc2ccccc12 in this assay:
Out: inactive

In: Query: recorded result category for COc1cc(C2SCC(=O)N2c2ccc(-c3ccc(-n4c(-c5ccccc5)nc5ccccc5c4=O)cc3)cc2)cc(OC)c1OC (centres undefined) in this test
Out: inactive

In: Record lookup: outcome of this test for Oc1cccc2c(Cl)ccnc12 ?
Out: active

In: Give the logged outcome of this assay for the following compound: Nc1nc(Cl)c(Cl)c(Cl)n1
Out: inactive

In: Recorded test outcome, item COc1ccc(OC)c2cc3ccccc3cc12
Out: inactive

In: Recorded test call requested for CC(C)C1=CCC2C(=C1)CCC1C(C)(C(=O)O)CCCC21C (centres undefined) (tested in a mixture with another compound)
Out: inactive

In: Just curious, what result did O=C(CC(=O)n1nc(-c2ccccc2)c(N=Nc2ccccc2C(=O)O)c1-c1ccccc1)Nc1ccc(Cl)cc1 get here?
Out: inactive

In: Could you please tell me the result logged for CCS(=O)(=O)c1ccc(/C=C/C=N/NC(=S)NCC(C)C)cc1 in this assay?
Out: inactive

In: Record lookup: outcome of this test for Cc1cccc2c(C(O)CBr)cc(-c3ccc(Cl)cc3)nc12 (centres undefined) ?
Out: active

In: Assay outcome for O=C(Cc1csc2[n+]1C(=O)/C(=C/c1ccc(Cl)cc1)S2)Nc1ccccc1 : what was it?
Out: inactive

In: Can you look up the reported call for COC(=O)c1ccc(CCC2=CC(=O)C(Br)=CC2=O)cc1 for me?
Out: inactive

In: Fill in: this test's call for OC1CSCCCSCCSCCCSC1 is ___
Out: inactive

In: Just curious, what result did O=C(Nc1ccccc1)OCCc1ccc(Cl)c(Cl)c1 get here?
Out: inactive

In: Please share the test call associated with CN(N=O)N1C(=O)SCC(c2ccccc2)(c2ccccc2)C1=O .
Out: inactive

In: Entry O=C(NCCCCCCCN1CCCCCCC1)C(C1CCCCC1)C1CCCCC1 : call = ?
Out: active

In: Which outcome was assigned to COc1ccc2sc3cccc(NCCN(C)C)c3c(=O)c2c1 in this test?
Out: inactive

In: Name the outcome recorded for COC1C=COC2(C)Oc3c(C)c(O)c4c(c3C2=O)/C(=N/C2CCC(O)OC2C)C=C(NC(=O)/C(C)=C\C(=O)C2CC2C(O)C(C)C(O)C(C)C(OC(C)=O)C1C)C4=O (centres undefined) in the assay.
Out: inactive

In: What classification did C[C@H](CCC(=O)NN)[C@H]1CC[C@H]2[C@@H]3CC[C@@H]4C[C@H](O)CC[C@]4(C)[C@H]3CC[C@]12C end up with in this test?
Out: inactive

In: Please indicate how the test categorized O=C(O)C1OC1(c1cccc(Cl)c1)c1ccccc1Cl (centres undefined) .
Out: inactive

In: Please let me know the test result on file for CC(C)c1ccccc1NC(=O)/C(Cl)=C(\Cl)C(=O)O .
Out: inactive

In: # lookup: test call for O=C(c1ccc(Cl)cc1)C1OC12C(=O)Nc1ccccc12 (centres undefined)
Out: active

In: Fill in: this test's call for COC(=O)CSSCc1ccc([N+](=O)[O-])cc1 is ___
Out: inactive

In: # outcome recorded in this test, key = O=C1C=CC(=O)c2c(O)c(Nc3ccc(OC(F)(F)F)cc3)c(Cl)c(O)c21
Out: inactive

In: Tell me the recorded outcome of this test for CCN(CC)CC(O)c1ccc2ccc3ccccc3c2c1 (centres undefined) .
Out: inactive

In: Kindly provide the recorded test outcome for the following compound: O=c1c2ccccc2ncn1COCc1ccccc1
Out: inactive

In: Per the assay record, what outcome was assigned to Nc1nc(-c2cccnc2)cc(-c2cc(-c3cccnc3)nc(N)n2)n1 ?
Out: inactive

In: Write down the call the test reported for this compound. Item: CCCc1cc(C(=O)OCC)cc(CCC)c1O
Out: inactive

In: Which result was noted for this compound in the test: CC(C(=O)N1C(=O)N(C(=O)[C@H](C)C(O)c2ccccc2)[C@H](c2ccccc2)[C@H]1c1ccccc1)[C@@H](O)c1ccccc1 (some centres undefined)
Out: inactive

In: Can you look up the reported call for COC(=O)c1ccc(NCC2=CC(=O)C=CC2=O)cc1O for me?
Out: active

The origin of these recorded values is PubChem BioAssay (NCI).
